# Tested on: HEK-293T
# assay_method_text: Multiplex assay against HEK293T;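 note: share of the cells with healthy nuclei that show this phenotype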
# Format: toxicity, cell-based
# recorded_conditions: human, 12 h, 10 µM, compound concentration 10 uM, replicate 1
Short version: Population Tubulin-Different-Phenotype (%) at least 30% is Y, less is N.

(Q) Is it the case that CCOC(=O)c1c(C)[nH]c2ccc3c(c12)CN1CCc2cc(OC)ccc2C1O3 (stereo not drawn) has Population Tubulin-Different-Phenotype (%) reaching or exceeding 30%?
(A) Y

(Q) COc1cc2ncnc(Nc3ccc(F)c(Cl)c3)c2cc1NC(=O)/C=C/CN1CCCCC1 [DACOMITINIB ANHYDROUS] ?
(A) N

(Q) O=C(Nc1cccnn1)N1CCC(=Cc2cccc(Oc3ccc(C(F)(F)F)cn3)c2)CC1 ?
(A) N

(Q) Cc1cn(-c2cc(NC(=O)c3ccc(C)c(Nc4nccc(-c5cccnc5)n4)c3)cc(C(F)(F)F)c2)cn1 [NILOTINIB] ?
(A) Y

(Q) CCOc1cc(C(=O)N2CCC(N3CCN(C)CC3)CC2)ccc1Nc1ncc2c(n1)N(C1CCCC1)c1ccccc1C(=O)N2C ?
(A) Y

(Q) COC(=N)c1nc2ccc3ncnc(Nc4ccc(OC)cc4F)c3c2s1 ?
(A) N

(Q) O=C(Nc1ccc(Cl)cc1)Nc1cccc(-c2cccc(N3CCCC3)n2)c1 ?
(A) Y

(Q) CN1C2CCC1CC(OC(c1ccc(F)cc1)c1ccc(F)cc1)C2.Cl (stereo not drawn) ?
(A) Y

====

# Test system: U2OS
# assay_method_text: Multiplex assay against U2OS
# Type: toxicity, cell-based
# recorded_conditions: human, 24 h, 10 µM, compound concentration 10 uM, replicate 1
Short version: Population Apoptotic (%) at least 60% is 1 (yes), less is 0 (no).

(Q) Is it the case that Cc1ccc2nc(NCCN)c3ncc(C)n3c2c1.O=C(O)C(F)(F)F.O=C(O)C(F)(F)F has Population Apoptotic (%) reaching or exceeding 60%?
(A) 1 (yes)

(Q) Cn1nc(C(F)(F)F)cc1-c1cnc(N2CCc3cc(S(=O)(=O)Nc4c(F)cc(Cl)cc4F)cc(N4CCCC4=O)c32)nc1 ?
(A) 0 (no)

(Q) CCN1CCN(c2ccc(Nc3cc(N(C)C(=O)Nc4c(Cl)c(OC)cc(OC)c4Cl)ncn3)cc2)CC1 ?
(A) 0 (no)

(Q) O=C1N/C(=N/c2ccccc2F)S/C1=C\c1ccc(C(=O)O)cc1 ?
(A) 0 (no)

(Q) CN1CCN(C(=O)C(C)(C)c2ccc(C(=O)Nc3cn4cc(-c5cc(C(C)(C)C)cc(C(C)(C)C)c5)ccc4n3)cc2)CC1 ?
(A) 0 (no)

(Q) CCOC(=O)c1c(C)[nH]c2ccc3c(c12)CN1CCc2cc(OC)ccc2C1O3 (configuration not stated) ?
(A) 1 (yes)

(Q) CCc1cccc(CC)c1NC(=O)c1nn(C)c2c1CCc1cnc(Nc3ccc(C(=O)NC4CCN(C)CC4)cc3OC(F)(F)F)nc1-2 ?
(A) 0 (no)

(Q) O=C(Cc1ccc(-c2ccc(OCCN3CCOCC3)cc2)cn1)NCc1ccccc1 ?
(A) 0 (no)

(Q) O=C(Nc1cccnn1)N1CCC(=Cc2cccc(Oc3ccc(C(F)(F)F)cn3)c2)CC1 ?
(A) 0 (no)

(Q) COc1cc2ncnc(Nc3ccc(F)c(Cl)c3)c2cc1NC(=O)/C=C/CN1CCCCC1 [DACOMITINIB ANHYDROUS] ?
(A) 0 (no)

(Q) CCN(CC)S(=O)(=O)Nc1cccc(-c2ccc3c(NC(=O)C4CC4)n[nH]c3c2)c1 ?
(A) 0 (no)

(Q) CCOc1cc(C(=O)N2CCC(N3CCN(C)CC3)CC2)ccc1Nc1ncc2c(n1)N(C1CCCC1)c1ccccc1C(=O)N2C ?
(A) 1 (yes)

(Q) Cl.Oc1ccc2c3c1O[C@H]1c4[nH]c5c(c4C[C@@]4(O)[C@@H](C2)N(CC2CC2)CC[C@]314)C[C@@]1(O)[C@H]2Cc3ccc(O)c4c3[C@@]1(CCN2CC1CC1)[C@H]5O4 ?
(A) 0 (no)

(Q) CCn1c(=O)c(-c2ccc(-c3cncs3)cc2Cl)cc2cnc(Nc3ccc(N4CCN(C)CC4)cc3)nc21 ?
(A) 1 (yes)

(Q) COc1ccc(S(=O)(=O)N(CCO)c2ccccc2CN(C)C/C=C/c2ccc(Cl)cc2)cc1.O=P(O)(O)O ?
(A) 1 (yes)

(Q) CN1CCC(=C2c3ccccc3CC(=O)c3sccc32)CC1.O=C(O)/C=C/C(=O)O [KETOTIFEN FUMARATE] ?
(A) 1 (yes)

(Q) COc1cc(N2CCN(C)CC2)ccc1Nc1ncc2c(n1)N(C)c1ccccc1C(=O)N2C ?
(A) 1 (yes)

(Q) C=CCn1c(=O)c2cnc(Nc3ccc(N4CCN(C)CC4)cc3)nc2n1-c1cccc(C(C)(C)O)n1 ?
(A) 1 (yes)

(Q) CCN1CCN(Cc2ccc(Nc3ncc(F)c(-c4cc(F)c5nc(C)n(C(C)C)c5c4)n3)nc2)CC1.CS(=O)(=O)O ?
(A) 1 (yes)

(Q) COc1cccc2cc(-c3nc([C@H]4CC[C@H](C(=O)O)CC4)n4ncnc(N)c34)[nH]c12 ?
(A) 0 (no)

(Q) CCc1cccc(CC)c1NC(=O)c1nn(C)c2c1CCc1cnc(Nc3ccc(N4CCN(C)CC4)cc3OC)nc1-2 ?
(A) 0 (no)

(Q) Cl.O=c1c2cccn2c2ccccc2n1CCCN1CCC(c2ccc(Cl)cc2)CC1 ?
(A) 1 (yes)

(Q) O=C1NC(=O)C(c2cnc3ccccn23)=C1c1cn2c3c(cc(F)cc13)CN(C(=O)N1CCCCC1)CC2 ?
(A) 1 (yes)

(Q) CNC(=O)c1ccc(Nc2nc(OC3CCCC3)c3c(-c4ccc5nc(C)oc5c4)c[nH]c3n2)c(OC)c1 ?
(A) 0 (no)

(Q) Cc1cn(-c2cc(NC(=O)c3ccc(C)c(Nc4nccc(-c5cccnc5)n4)c3)cc(C(F)(F)F)c2)cn1 ?
(A) 1 (yes)

(Q) S=C(NCCCc1c[nH]cn1)NCCCN(Cc1ccc(Cl)c(Cl)c1)c1ccc(Br)cn1 ?
(A) 1 (yes)

(Q) NC(=O)c1cccc(-c2cc(Nc3ccc(OC(F)(F)F)cc3)ncn2)c1 ?
(A) 0 (no)

(Q) CCCS(=O)(=O)Nc1ccc(F)c(C(=O)c2c[nH]c3ncc(Cl)cc23)c1F ?
(A) 0 (no)

(Q) C=C1/C(=C\C=C2/CCC[C@]3(C)[C@@H]([C@H](C)/C=C/[C@H](C)C(C)C)CC[C@@H]23)C[C@@H](O)C[C@@H]1O ?
(A) 0 (no)

(Q) Cc1cc(C)c(S(=O)(=O)N(Cc2ccc(-c3cccc(S(C)(=O)=O)c3)cc2)Cc2ccc(C(F)(F)F)o2)c(C)c1 ?
(A) 0 (no)
